system: breast cancer (MCF-7); experiment: Antiproliferative assay, MCF-7; type: cell-based, human; conditions: Homo sapiens, MCF7; MCF-7 breast cancer cell line; read-out: Antiproliferative activity IC50 ± SEM (nM) MCF-7
Result Type: IC50 (nM)

Take a look at these entries with their results.
{"columns": ["Compound", "Numeric Value"],
 "data": [
  ["Cc1ccc2[nH]c(=O)c3c(c2c1)OC(N)=C(C#N)C3c1ccccc1 (centres unmarked)", 44],
  ["N#CC1=C(N)Oc2c(c(=O)[nH]c3ccccc23)C1c1ccc(Cl)cc1 (centres unmarked)", 38],
  ["COc1ccc2[nH]c(=O)c3c(c2c1)OC(N)=C(C#N)C3c1ccccc1 (centres unmarked)", 59],
  ["C#Cc1cccc(Nc2ncnc3cc(OCCOC)c(OCCOC)cc23)c1 [Erlotinib, reference compound]", 40],
  ["Cc1ccc2[nH]c(=O)c3c(c2c1)OC(N)=C(C#N)C3c1ccc(Cl)cc1 (centres unmarked)", 34],
  ["COc1ccc2[nH]c(=O)c3c(c2c1)OC(N)=C(C#N)C3c1ccc(Cl)cc1 (centres unmarked)", 56]
]}

(I) Cc1ccc2c3c(c(=O)[nH]c2c1)C(c1ccccc1)C(C#N)=C(N)O3 (centres unmarked)
(II) COc1ccc(C2C(C#N)=C(N)Oc3c2c(=O)[nH]c2ccc(C)cc32)cc1 (centres unmarked)
Hi there! Just curious which has the higher IC50 between I and II . When you have decided, please share the label of that item.
II

meta.source: paper PMC12517401
